Some binders, each annotated with its measured EC50.
Measured target: T1, cyno TfR ECD (cynomolgus)
T1 chain: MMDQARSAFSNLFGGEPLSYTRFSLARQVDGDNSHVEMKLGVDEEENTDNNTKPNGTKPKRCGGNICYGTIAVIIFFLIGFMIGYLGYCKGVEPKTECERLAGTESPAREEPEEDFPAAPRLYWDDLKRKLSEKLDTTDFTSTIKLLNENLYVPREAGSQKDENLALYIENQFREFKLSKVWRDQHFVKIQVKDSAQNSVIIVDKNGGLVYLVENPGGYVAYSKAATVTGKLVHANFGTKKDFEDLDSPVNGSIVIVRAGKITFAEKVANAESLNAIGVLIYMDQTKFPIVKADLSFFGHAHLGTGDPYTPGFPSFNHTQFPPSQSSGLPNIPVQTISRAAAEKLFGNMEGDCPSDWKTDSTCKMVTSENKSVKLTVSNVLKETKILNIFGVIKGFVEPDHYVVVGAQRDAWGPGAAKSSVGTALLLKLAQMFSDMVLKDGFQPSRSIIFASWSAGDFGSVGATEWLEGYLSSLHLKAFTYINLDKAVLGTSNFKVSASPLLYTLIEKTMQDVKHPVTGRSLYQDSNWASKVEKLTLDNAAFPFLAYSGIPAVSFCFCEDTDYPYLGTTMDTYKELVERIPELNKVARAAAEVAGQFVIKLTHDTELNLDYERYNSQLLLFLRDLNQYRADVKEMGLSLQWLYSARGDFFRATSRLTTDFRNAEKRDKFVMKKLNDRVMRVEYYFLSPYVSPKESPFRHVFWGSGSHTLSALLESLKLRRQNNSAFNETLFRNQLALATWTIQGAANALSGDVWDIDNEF
Measurement description: ELISA
The reply should contain only the number, in ng/mL.

>  <Binder>
hu15G11.v5 LC D56A (antibody, V domains shown) VH: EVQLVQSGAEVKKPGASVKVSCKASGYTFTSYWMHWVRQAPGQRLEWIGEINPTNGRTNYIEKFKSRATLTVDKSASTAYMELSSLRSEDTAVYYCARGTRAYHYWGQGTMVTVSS VL: DIQMTQSPSSLSASVGDRVTITCRASDNLYSNLAWYQQKPGKSPKLLVYDATNLAAGVPSRFSGSGSGTDYTLTISSLQPEDFATYYCQHFWGTPLTFGQGTKVEIK

>  <EC50 [ng/mL]>
0.5

$$$$

For the binder hu15G11.v5 HC S31A (antibody, V domains shown) VH: EVQLVQSGAEVKKPGASVKVSCKASGYTFTAYWMHWVRQAPGQRLEWIGEINPTNGRTNYIEKFKSRATLTVDKSASTAYMELSSLRSEDTAVYYCARGTRAYHYWGQGTMVTVSS VL: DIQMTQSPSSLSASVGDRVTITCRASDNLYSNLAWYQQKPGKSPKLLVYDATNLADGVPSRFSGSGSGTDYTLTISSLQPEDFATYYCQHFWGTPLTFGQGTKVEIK , give its reported EC50.
0.1

For the binder hu15G11.v5 HC W33A (antibody, V domains shown) VH: EVQLVQSGAEVKKPGASVKVSCKASGYTFTSYAMHWVRQAPGQRLEWIGEINPTNGRTNYIEKFKSRATLTVDKSASTAYMELSSLRSEDTAVYYCARGTRAYHYWGQGTMVTVSS VL: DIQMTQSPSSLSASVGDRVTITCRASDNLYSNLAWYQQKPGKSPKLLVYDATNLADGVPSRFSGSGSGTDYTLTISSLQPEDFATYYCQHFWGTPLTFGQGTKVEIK , give its reported EC50.
362

For the binder hu15G11.v5 LC D50A (antibody, V domains shown) VH: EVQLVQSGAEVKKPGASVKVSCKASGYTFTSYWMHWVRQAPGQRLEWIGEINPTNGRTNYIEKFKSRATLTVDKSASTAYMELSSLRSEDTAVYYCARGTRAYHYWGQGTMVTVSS VL: DIQMTQSPSSLSASVGDRVTITCRASDNLYSNLAWYQQKPGKSPKLLVYAATNLADGVPSRFSGSGSGTDYTLTISSLQPEDFATYYCQHFWGTPLTFGQGTKVEIK , give its reported EC50.
0.5
